System: PC9 cells
EXPERIMENT: MTT IC50 on parental PC9 cells
Format: cell-based
MEASUREMENT CONDITIONS: Homo sapiens, PC-9; EGFR-mutant PC9 cells; read-out: IC50 for Osimertinib
PARAMETER: pIC50
Remember, pIC50 is on a log scale: it is -log10 of the molar concentration.

QUERY: Enter reported pIC50 observed with PC9 cells for C=CC(=O)Nc1cc(Nc2nccc(-c3cn(C)c4ccccc34)n2)c(OC)cc1N(C)CCN(C)C [Osimertinib, reference compound]
RESULT: 7.80
